# System: AR+LNCaP androgen-sensitive human prostate cancer cell line
# experiment notes: MTT cytotoxicity assay in presence of 1 nM DHT, 48 h incubation
# Type: cell-based
# reported conditions: Homo sapiens
Exercise: for every item that follows, state its recorded pIC50.
Keep in mind that pIC50 stands for -log10 of concentration in molar terms.

# value of pIC50, AR+LNCaP androgen-sensitive human prostate cancer cell line, item O=C1NC(=S)NC1=Cc1cn(-c2ccc(F)cc2)nc1-c1ccc(Cl)cc1 [Compound 3i] = 5.22

# value of pIC50, AR+LNCaP androgen-sensitive human prostate cancer cell line, item Cc1ccc(-c2nn(-c3ccc(F)cc3)cc2C=C2NC(=S)NC2=O)cc1 [Compound 3m] = 4.98

# value of pIC50, AR+LNCaP androgen-sensitive human prostate cancer cell line, item O=C1NC(=S)NC1=Cc1cn(-c2ccc(F)cc2)nc1-c1ccc(Br)cc1 [Compound 3j] = 5.11

# value of pIC50, AR+LNCaP androgen-sensitive human prostate cancer cell line, item O=C1NC(=S)NC1=Cc1cn(-c2ccc(C(F)(F)F)cc2)nc1-c1ccc(C(F)(F)F)cc1 [Compound 3p] = 5.23

# value of pIC50, AR+LNCaP androgen-sensitive human prostate cancer cell line, item O=C1NC(=S)NC1=Cc1cn(-c2ccc(F)cc2)nc1-c1ccc(C(F)(F)F)cc1 [Compound 3k] = 5.28

# value of pIC50, AR+LNCaP androgen-sensitive human prostate cancer cell line, item O=C1NC(=S)NC1=Cc1cn(-c2ccc(C(F)(F)F)cc2)nc1-c1ccc(F)cc1 [Compound 3o] = 4.93

----------
experimental readout: melting point

According to the records, this molecule O=C1NC(=S)NC1=Cc1cn(-c2ccc(C(F)(F)F)cc2)nc1-c1ccc(F)cc1 [Compound 3o] displays melting point of 205 to 207 °C

According to the records, this molecule O=C1NC(=S)NC1=Cc1cn(-c2ccccc2)nc1-c1ccc(F)cc1 [Compound 3a] displays melting point of 186 to 188 °C

According to the records, this molecule O=C1NC(=S)NC1=Cc1cn(-c2ccc(F)cc2)nc1-c1ccc(C(F)(F)F)cc1 [Compound 3k] displays melting point of 210 to 212 °C

According to the records, this molecule O=C1NC(=S)NC1=Cc1cn(-c2ccc(F)cc2)nc1-c1ccc(Cl)cc1 [Compound 3i] displays melting point of 168 to 170 °C

According to the records, this molecule O=C1NC(=S)NC1=Cc1cn(-c2ccc(C(F)(F)F)cc2)nc1-c1ccc(C(F)(F)F)cc1 [Compound 3p] displays melting point of 223 to 225 °C

According to the records, this molecule O=C1NC(=S)NC1=Cc1cn(-c2ccc(F)cc2)nc1-c1ccc(Br)cc1 [Compound 3j] displays melting point of 199 to 201 °C

According to the records, this molecule Nc1ccc(-c2nn(-c3ccccc3)cc2C=C2NC(=S)NC2=O)cc1 [Compound 3g] displays melting point of 195 to 197 °C

According to the records, this molecule COc1ccc(-c2nn(-c3ccc(F)cc3)cc2C=C2NC(=S)NC2=O)cc1 [Compound 3n] displays melting point of 179 to 181 °C

According to the records, this molecule Cc1ccc(-c2nn(-c3ccc(F)cc3)cc2C=C2NC(=S)NC2=O)cc1 [Compound 3m] displays melting point of 167 to 169 °C

According to the records, this molecule O=C1NC(=S)NC1=Cc1cn(-c2ccccc2)nc1-c1ccc(C(F)(F)F)cc1 [Compound 3d] displays melting point of 183 to 185 °C

According to the records, this molecule O=C1NC(=S)NC1=Cc1cn(-c2ccccc2)nc1-c1ccccc1 [Compound 3e] displays melting point of 168 to 179 °C

According to the records, this molecule O=C1NC(=S)NC1=Cc1cn(-c2ccc(F)cc2)nc1-c1ccccc1 [Compound 3l] displays melting point of 189 to 191 °C

According to the records, this molecule O=C1NC(=S)NC1=Cc1cn(-c2ccccc2)nc1-c1ccc(Br)cc1 [Compound 3c] displays melting point of 193 to 195 °C

According to the records, this molecule O=C1NC(=S)NC1=Cc1cn(-c2ccccc2)nc1-c1ccc(Cl)cc1 [Compound 3b] displays melting point of 183 to 184 °C

According to the records, this molecule Cc1ccc(-c2nn(-c3ccccc3)cc2C=C2NC(=S)NC2=O)cc1 [Compound 3f] displays melting point of 189 to 191 °C

According to the records, this molecule O=C1NC(=S)NC1=Cc1cn(-c2ccc(F)cc2)nc1-c1ccc(F)cc1 [Compound 3h] displays melting point of 178 to 179 °C

Source: paper PMC11274643
